test: Acute toxicity / mortality, oral, mice
Assay type: in vivo
cond: mouse, in vivo; 3500 mg/kg/PO; read-out: Percentage of mortality with mice
endpoint: mortality

Consider the compound O=C(CN1CCN(CC2COC3(O2)c2ccccc2C=Cc2ccccc23)CC1)N1CCOCC1 (stereo not shown) and give its measured mortality.
~50%

----------
test: Acute toxicity / mortality, oral, mice
Format: in vivo
cond: mouse, in vivo; oral; Table XII; read-out: LD50
endpoint: LD50

Consider the molecule c1ccc(C(c2ccccc2)N2CCN(CC3COC4(O3)c3ccccc3CCc3ccccc34)CC2)cc1 (stereo not shown) and give its measured LD50.
> 2000 mg/kg

----------
Please go through the items and note down their mortality.
test: Acute toxicity / mortality, oral, mice
Type: in vivo
cond: mouse, in vivo; 1200 mg/kg/PO; read-out: Percentage of mortality with mice

Consider the molecule CC(C)NC(=O)CN1CCN(CC2COC3(O2)c2ccccc2C=Cc2ccccc23)CC1 (stereo not drawn) and give its measured mortality.
~50%

Try the molecule O=C(CN1CCN(CC2COC3(O2)c2ccccc2CCc2ccccc23)CC1)N1CCCC1 (stereo not drawn)
~50%

Try the molecule CC(C)NC(=O)CN1CCN(CC2COC3(O2)c2ccccc2CCc2ccccc23)CC1 (stereo not drawn)
~50%

----------
test: Acute toxicity / mortality, oral, mice
Assay type: in vivo
cond: mouse, in vivo; 3400 mg/kg/PO; read-out: Percentage of mortality with mice
endpoint: mortality

Consider the molecule O=C(CN1CCN(CC2COC3(O2)c2ccccc2C=Cc2ccccc23)CC1)N1CCCCCC1 (stereo not shown) and give its measured mortality.
~50%

----------
test: Acute toxicity / mortality, oral, mice
Type: in vivo
cond: mouse, in vivo; 1900 mg/kg/PO; read-out: Percentage of mortality with mice
Excerpt: As is shown by the preceding results and by those given in Table XIV below, the difference between pharmacologically active doses and lethal doses is sufficiently great to allow the use of compounds of formula (I) in therapeutics.
endpoint: mortality

Consider the molecule CCCN(CCC)C(=O)CN1CCN(CC2COC3(O2)c2ccccc2C=Cc2ccccc23)CC1 (stereo not shown) [compound 7204] and give its measured mortality.
~50%

----------
Please go through the items and note down their inhibition in vivo at 100 mg/kg.
Test system: painful stretchings following intraperitoneal injection of acetic acid
test: Analgesic: painful stretchings following intraperitoneal acetic acid in mouse
Assay type: in vivo
cond: 100 mg/kg/PO, read-out: Percentage reduction in the number of painful stretchings
The number alone won't do; follow it with the unit.

Consider the molecule CN(C)C(=O)CN1CCN(CC2COC3(O2)c2ccccc2C=Cc2ccccc23)CC1 (stereo not shown) [compound 7251] and give its measured inhibition in vivo at 100 mg/kg.
50%

Try the molecule O=C(CN1CCN(CC2COC3(O2)c2ccccc2C=Cc2ccccc23)CC1)N1CCCC1 (stereo not shown) [compound 71562]
47%

Try the molecule CCOC(=O)CN1CCN(CC2COC3(O2)c2ccccc2CCc2ccccc23)CC1 (stereo not shown) [compound 70365]
75%

Try the molecule CC(C)NC(=O)CN1CCN(CC2COC3(O2)c2ccccc2CCc2ccccc23)CC1 (stereo not shown) [compound 70347]
70%

Try the molecule CNC(=O)CN1CCN(CC2COC3(O2)c2ccccc2C=Cc2ccccc23)CC1 (stereo not shown) [compound 72188]
60%

Try the molecule OCC(O)CN1CCN(CC2COC3(O2)c2ccccc2C=Cc2ccccc23)CC1 (stereo not shown) [compound 72196]
45%

Try the molecule O=C(CN1CCN(CC2COC3(O2)c2ccccc2CCc2ccccc23)CC1)N1CCCC1 (stereo not shown) [compound 70339]
75%

Try the molecule CCCN(CCC)C(=O)CN1CCN(CC2COC3(O2)c2ccccc2C=Cc2ccccc23)CC1 (stereo not shown) [compound 7204]
70%

Try the molecule CN1CCN(CC2COC3(O2)c2ccccc2CCc2ccccc23)CC1 (stereo not shown) [compound 70358]
43%

Try the molecule CCCNC(=O)CN1CCN(CC2COC3(O2)c2ccccc2C=Cc2ccccc23)CC1 (stereo not shown) [compound 72142]
70%

----------
System: isolated duodenum of a rat (barium chloride)
test: Spasmolytic: contraction by barium chloride of isolated duodenum of a rat
Please go through the items and note down their DE50 (spasmolytic).
Dear colleague, please return just the value in µg/mL, with no unit written.

Consider the compound O=C(CN1CCN(CC2COC3(O2)c2ccccc2C=Cc2ccccc23)CC1)N1CCCCCC1 (stereo not shown) and give its measured DE50 (spasmolytic).
3.50

Try the compound O=C(CN1CCN(CC2COC3(O2)c2ccccc2C=Cc2ccccc23)CC1)N1CCOCC1 (stereo not shown)
2.50

Try the compound CN(C)C(=O)CN1CCN(CC2COC3(O2)c2ccccc2C=Cc2ccccc23)CC1 (stereo not shown)
3.50

Try the compound CCCN(CCC)C(=O)CN1CCN(CC2COC3(O2)c2ccccc2C=Cc2ccccc23)CC1 (stereo not shown)
2.50

Try the compound CCCNC(=O)CN1CCN(CC2COC3(O2)c2ccccc2C=Cc2ccccc23)CC1 (stereo not shown)
2.50

Try the compound CN1CCN(CC2COC3(O2)c2ccccc2C=Cc2ccccc23)CC1 (stereo not shown)
3.75

Try the compound OCC(O)CN1CCN(CC2COC3(O2)c2ccccc2C=Cc2ccccc23)CC1 (stereo not shown)
0.25

----------
Test system: isolated ileum of a guinea pig (histamine)
test: Antihistamine: contraction by histamine of isolated ileum of a guinea pig
Please go through the items and note down their Antihistamine activity DE50.

Consider the compound OCC(O)CN1CCN(CC2COC3(O2)c2ccccc2C=Cc2ccccc23)CC1 (stereo not drawn) [compound 72196] and give its measured Antihistamine activity DE50.
1 µg/mL

Try the compound CC(C)NC(=O)CN1CCN(CC2COC3(O2)c2ccccc2C=Cc2ccccc23)CC1 (stereo not drawn) [compound 72134]
1 µg/mL

Try the compound CCCNC(=O)CN1CCN(CC2COC3(O2)c2ccccc2C=Cc2ccccc23)CC1 (stereo not drawn) [compound 72142]
0.6 µg/mL

Try the compound O=C(CN1CCN(CC2COC3(O2)c2ccccc2C=Cc2ccccc23)CC1)N1CCCCCC1 (stereo not drawn) [compound 72176]
0.5 µg/mL

Try the compound CNC(=O)CN1CCN(CC2COC3(O2)c2ccccc2C=Cc2ccccc23)CC1 (stereo not drawn) [compound 72188]
1 µg/mL

Try the compound CN1CCN(CC2COC3(O2)c2ccccc2C=Cc2ccccc23)CC1 (stereo not drawn) [compound 72143]
0.25 µg/mL

----------
test: Acute toxicity / mortality, oral, mice
Type: in vivo
cond: mouse, in vivo; 1600 mg/kg/PO; read-out: Percentage of mortality with mice
endpoint: mortality

Consider the molecule OCC(O)CN1CCN(CC2COC3(O2)c2ccccc2CCc2ccccc23)CC1 (stereo not shown) and give its measured mortality.
~50%

----------
test: Acute toxicity / mortality, oral, mice
Assay type: in vivo
cond: mouse, in vivo; 1650 mg/kg/PO; read-out: Percentage of mortality with mice
From the text: As is shown by the preceding results and by those given in Table XIV below, the difference between pharmacologically active doses and lethal doses is sufficiently great to allow the use of compounds of formula (I) in therapeutics.
endpoint: mortality

Consider the molecule CCCNC(=O)CN1CCN(CC2COC3(O2)c2ccccc2C=Cc2ccccc23)CC1 (stereo not shown) [compound 72142] and give its measured mortality.
~50%

----------
test: Acute toxicity / mortality, oral, mice
Assay type: in vivo
cond: mouse, in vivo; 1100 mg/kg/PO; read-out: Percentage of mortality with mice
endpoint: mortality

Consider the molecule OCC(O)CN1CCN(CC2COC3(O2)c2ccccc2C=Cc2ccccc23)CC1 (centres unmarked) and give its measured mortality.
~50%

Try the molecule CNC(=O)CN1CCN(CC2COC3(O2)c2ccccc2C=Cc2ccccc23)CC1 (centres unmarked)
~50%

----------
test: Acute toxicity / mortality, oral, mice
Type: in vivo
cond: mouse, in vivo; 1250 mg/kg/PO; read-out: Percentage of mortality with mice
endpoint: mortality

Consider the compound CCOC(=O)CN1CCN(CC2COC3(O2)c2ccccc2CCc2ccccc23)CC1 (stereo not shown) and give its measured mortality.
~50%

----------
test: Acute toxicity / mortality, oral, mice
Format: in vivo
cond: mouse, in vivo; mice, oral; Table XI; read-out: LD50 (mice)
Lab note: cut-off is 1000 mg/kg. Strictly less in LD50 is MET. Exactly 1000 mg/kg or more is NOT MET.

Quick check: LD50 of CN(C)CC1COC2(O1)c1ccccc1C=Cc1ccccc12 (stereo not drawn) [compound 70312, reference compound] under 1000 mg/kg?
MET

Try the compound O=C(CN1CCN(CC2COC3(O2)c2ccccc2CCc2ccccc23)CC1)N1CCCC1 (stereo not drawn)
NOT MET

Try the compound CCCN(CCC)C(=O)CN1CCN(CC2COC3(O2)c2ccccc2C=Cc2ccccc23)CC1 (stereo not drawn)
NOT MET

Try the compound C1=Cc2ccccc2C2(OCC(CN3CCCCC3)O2)c2ccccc21 (stereo not drawn) [compound 70315, reference compound]
MET

Try the compound CC(C)NC(=O)CN1CCN(CC2COC3(O2)c2ccccc2CCc2ccccc23)CC1 (stereo not drawn)
NOT MET

Try the compound CC(C)NC(=O)CN1CCN(CC2COC3(O2)c2ccccc2C=Cc2ccccc23)CC1 (stereo not drawn)
NOT MET

Try the compound O=C(CN1CCN(CC2COC3(O2)c2ccccc2C=Cc2ccccc23)CC1)N1CCCC1 (stereo not drawn)
NOT MET

Try the compound C1=Cc2ccccc2C2(OCC(CN3CCCC3)O2)c2ccccc21 (stereo not drawn) [compound 70301, reference compound]
MET

Try the compound O=C(CN1CCN(CC2COC3(O2)c2ccccc2C=Cc2ccccc23)CC1)N1CCOCC1 (stereo not drawn)
NOT MET

Try the compound CCOC(=O)CN1CCN(CC2COC3(O2)c2ccccc2CCc2ccccc23)CC1 (stereo not drawn)
NOT MET

Try the compound CN(C)C(=O)CN1CCN(CC2COC3(O2)c2ccccc2C=Cc2ccccc23)CC1 (stereo not drawn)
NOT MET

Try the compound OCC(O)CN1CCN(CC2COC3(O2)c2ccccc2C=Cc2ccccc23)CC1 (stereo not drawn)
NOT MET

Try the compound CN(C)CC1COC2(O1)c1ccccc1CCc1ccccc12 (stereo not drawn) [compound 69257, reference compound]
MET

Try the compound CNC(=O)CN1CCN(CC2COC3(O2)c2ccccc2C=Cc2ccccc23)CC1 (stereo not drawn)
NOT MET

Try the compound O=C(CN1CCN(CC2COC3(O2)c2ccccc2CCc2ccccc23)CC1)N1CCOCC1 (stereo not drawn)
NOT MET

Try the compound CCCNC(=O)CN1CCN(CC2COC3(O2)c2ccccc2C=Cc2ccccc23)CC1 (stereo not drawn)
NOT MET

Try the compound CN1CCN(CC2COC3(O2)c2ccccc2C=Cc2ccccc23)CC1 (stereo not drawn)
MET
